Origin of values: patent US20120277143A1

# target-under-test: T1, human IL13 (human, UniProt P35225 35-146, biotinylated in the SPR assays (sites not given))
# T1 construct: Peprotech; also called hIL13; recombinant human IL13
# T1 sequence (P35225 other isoform, or with tags, fused parts or gaps limits assumed): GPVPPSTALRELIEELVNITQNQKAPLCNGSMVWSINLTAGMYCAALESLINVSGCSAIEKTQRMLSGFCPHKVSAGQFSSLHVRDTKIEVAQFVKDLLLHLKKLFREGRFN
# assay-explanation: SPR BIAcore, biotin-IL13 on SA chip, global fit
Reported kon values are given for each entry in this list.
property-measured: kon (M⁻¹ s⁻¹)

1) 9F8 (designed binder, ankyrin repeat protein) DLGKKLLEAARAGQDDEVRILMANGADVNASDIFGSTPLHLAARHGHLEIVEVLLKYGADVNAMDFIGDTPLHLAAYRGHLEIVEVLLKYGVDVNADDHGDTPLHLAASMGHLEIVEVLLKNGADVNAQDKFGKTAFDISIDNGNEDLAEILQKLN; 930000
2) 5H7 (designed binder, N-Cap-(AR)3-C-Cap) DLGKKLLEAARAGQDDEVRILMANGADVNAADMYGTTPQHLAARTGHLEIVEVLLKYGADVNAADFLGDTPLHLAAYHGHLEIVEVLLKHGADVNASDITGETPLHLAAHLGHLEIVEVLLKYGADVNAQDKFGKTAFDISIDNGNEDLAEILQKLN; 3.4e+06
